# subject.of.test: 5-hydroxytryptamine receptor 3A (Mus musculus, UniProt P23979)
# Sequence (P23979 whole entry): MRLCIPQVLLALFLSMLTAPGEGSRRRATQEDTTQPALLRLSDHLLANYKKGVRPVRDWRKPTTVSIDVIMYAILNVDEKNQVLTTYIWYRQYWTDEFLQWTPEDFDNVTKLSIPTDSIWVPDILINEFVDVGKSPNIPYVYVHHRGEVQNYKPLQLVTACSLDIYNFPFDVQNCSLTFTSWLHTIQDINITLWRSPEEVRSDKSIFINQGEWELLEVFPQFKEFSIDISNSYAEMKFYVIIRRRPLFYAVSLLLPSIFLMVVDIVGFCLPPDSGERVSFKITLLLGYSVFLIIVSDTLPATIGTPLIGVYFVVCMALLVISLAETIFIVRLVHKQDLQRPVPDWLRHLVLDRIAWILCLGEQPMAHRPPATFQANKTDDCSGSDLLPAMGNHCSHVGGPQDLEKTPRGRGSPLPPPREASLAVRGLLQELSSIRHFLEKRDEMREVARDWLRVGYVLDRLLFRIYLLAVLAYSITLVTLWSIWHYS
So I've got a bunch of molecules here, and I need their Ki values.
Numbers only, in nM.

>>> quantitative_result("COc1cc2c3cc1Oc1cc(ccc1O)C[C@@H]1c4c(cc(OC)c(O)c4Oc4ccc(cc4)C[C@@H]3N(C)CC2)CC[N+]1(C)C")
8.7

Give Ki for all molecules that follow.
1. CN1C2CCC1CC(OC(=O)c1c[nH]c3ccccc13)C2 (centres undefined)
2. CN1C2CCC1CC(OC(=O)c1cc(Cl)cc(Cl)c1)C2 (centres undefined)

1: 1.99; 2: 87.1

###

Here's what we have: Ki numbers for 5-hydroxytryptamine receptor 1F (Homo sapiens, UniProt P30939).
One number for each entry, in nM.

The examples below pair each entry with its known result.
>>> quantitative_result("COc1cc(CC(C)N)c(OC)cc1I (stereo not given) [[125I]2,5-dimethoxy-4-iodoamphetamine]")
2510
>>> quantitative_result("CN1CCN2c3ccccc3Cc3ccccc3[C@H]2C1 [MIANSERIN (+)]")
12.6
>>> quantitative_result("c1ccc2c(N3CCNCC3)cccc2c1")
53.7
>>> quantitative_result("O=C(c1ccc(F)cc1)C1CCN(CCn2c(=O)[nH]c3ccccc3c2=O)CC1")
1.25

What does the data say about its Ki? Entry: O=C(CCCN1CCC2(CC1)C(=O)NCN2c1ccccc1)c1ccc(F)cc1
3.98

###

# subject.of.test: 5-hydroxytryptamine receptor 1B (Homo sapiens)
# Sequence (P28222 whole entry): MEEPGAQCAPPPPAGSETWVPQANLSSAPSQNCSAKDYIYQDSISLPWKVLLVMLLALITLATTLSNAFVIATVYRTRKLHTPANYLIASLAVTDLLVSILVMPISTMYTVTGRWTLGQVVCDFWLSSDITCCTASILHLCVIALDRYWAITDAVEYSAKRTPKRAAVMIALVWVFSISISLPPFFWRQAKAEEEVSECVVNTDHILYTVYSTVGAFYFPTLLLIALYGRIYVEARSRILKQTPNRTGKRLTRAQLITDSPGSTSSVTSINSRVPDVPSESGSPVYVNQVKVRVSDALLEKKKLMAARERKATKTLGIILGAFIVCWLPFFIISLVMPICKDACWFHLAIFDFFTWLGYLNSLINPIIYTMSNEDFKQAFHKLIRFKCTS
measure.name: pKi
Numbers only, as −log10 of the molar value.

Reference set (2 entries):
>>> quantitative_result("CCCN(CCC)CCc1c[nH]c2ccc(C(N)=O)cc12 [NN-DIPROP-5-CT]")
7.38
>>> quantitative_result("c1ccc2c(N3CCNCC3)cccc2c1")
7.92

Read the next record carefully.
Observed pKi on 5-hydroxytryptamine receptor 1B (Homo sapiens) for CC(C)(C)NCC(O)COc1cccc2[nH]c(C#N)cc12 (stereo not drawn) [NSC_155346] , please.
7.67

###

# subject.of.test: 5-hydroxytryptamine receptor 1F (Mus musculus, UniProt Q02284)
# Sequence (Q02284 whole entry): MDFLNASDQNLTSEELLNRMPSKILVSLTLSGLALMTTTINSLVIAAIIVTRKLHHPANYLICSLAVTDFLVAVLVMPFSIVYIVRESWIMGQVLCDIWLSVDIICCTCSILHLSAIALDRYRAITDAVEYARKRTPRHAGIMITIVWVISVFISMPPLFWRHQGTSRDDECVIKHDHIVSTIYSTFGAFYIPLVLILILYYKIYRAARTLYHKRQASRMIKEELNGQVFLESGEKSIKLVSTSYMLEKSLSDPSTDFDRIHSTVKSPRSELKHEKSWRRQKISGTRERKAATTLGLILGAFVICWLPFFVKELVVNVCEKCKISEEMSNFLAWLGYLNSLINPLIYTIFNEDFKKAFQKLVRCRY
pKi: −log10 of the molar value.
I would appreciate it if you labelled entries True when pKi is 7 or higher, otherwise False.

>>> class_assignment("CN1C[C@H](C(=O)N[C@]2(C)O[C@@]3(O)[C@@H]4CCCN4C(=O)[C@H](Cc4ccccc4)N3C2=O)C=C2c3cccc4[nH]cc(c34)C[C@H]21")
"True"
>>> class_assignment("CN(C)CCc1c[nH]c2ccc(O)cc12 [3-[2-(dimethylamino)ethyl]indol-5-ol]")
"True"
>>> class_assignment("CC[C@@H](CO)NC(=O)[C@@H]1C=C2c3cccc4c3c(cn4C)C[C@H]2N(C)C1")
"True"
>>> class_assignment("FC(F)(F)c1cccc(N2CCNCC2)c1")
"False"

Could you please find out whether NCCc1c[nH]c2ccc(C(N)=O)cc12 [[3H]-5-carboxamidotryptamine] has pKi that meets 7 or exceeds it?
False
